Reported IC50 by item:
- EXPERIMENTAL TARGET: guinea pig brain membranes
- MEASUREMENT NOTES: Binding test with guinea pig brain membranes
- TEST CONDITIONS: tested on guinea pig brain membranes; read-out: IC50 = 100 μM
- Protocol: Binding Assay Alternative Protocol by Skatron […] The guinea pigs are sacrificed by rupturing their cervical vertibrae, decapitated, and the brains are removed very rapidly and placed into a sucrose-Tris-HCl buffer (0.32 M sucrose 5 mM, Tris-HCl, 0.1 g/l bacitracin) at 4° C. […] The protein content of the membrane preparations is evaluated according to the Bradford method (BioRad, according to the manufacturers protocol). […]
Where a SMILES comes first, the peptide text is derived from it.
# value in nM; strip the unit string

MOLECULE	EXPERIMENTAL TARGET	IC50, nM
C[C@H](NC(=O)[C@H](CCC(=O)O)NC(=O)[C@@H]1CCCN1C(=O)[C@H](CCC(N)=O)NC(=O)[C@H](Cc1ccccc1)NC(=O)[C@H](CO)NC(=O)[C@H](CO)NC(=O)[C@@H](N)CCC(=O)O)C(=O)NCC(=O)N[C@@H](Cc1ccccc1)C(N)=O [Example 24, H-ESSFQPEAGF-NH2] (H-ESSFQPEAGF-NH2)	guinea pig brain membranes	230

Could you now consider this next molecule?
Data request: # value lookup — system guinea pig brain membranes, readout IC50, item CC(C)C[C@H](NC(=O)[C@H](CC(C)C)NC(=O)[C@@H](N)CO)C(=O)N[C@@H](CO)C(=O)N[C@@H](CCCCN)C(=O)N[C@H](C(=O)N[C@@H](CO)C(=O)N[C@@H](CCC(N)=O)C(N)=O)C(C)C [Example 7, H-SLLSKVSQ-NH2] (H-SLLSKVSQ-NH2)
Data returned: 430

----------
- EXPERIMENTAL TARGET: guinea pig brain membranes
- MEASUREMENT NOTES: Binding test with guinea pig brain membranes
- TEST CONDITIONS: tested on guinea pig brain membranes; read-out: IC50 = 100 μM
Where a SMILES comes first, the peptide text is derived from it.
Reported IC50 values follow for various molecules
I only need the number, in nM, no unit after it.

The cases that follow already have their IC50 on record.
MOLECULE	EXPERIMENTAL TARGET	SCALE UNIT	REPORTED MEASUREMENT
CC(C)C[C@H](NC(=O)[C@@H]1CCCN1C(=O)[C@H](CC(C)C)NC(=O)[C@H](CCC(N)=O)NC(=O)[C@@H](N)Cc1ccccc1)C(=O)N[C@@H](CC(=O)O)C(=O)N[C@@H](CCCCN)C(=O)NCC(=O)N[C@@H](CC(N)=O)C(N)=O [Example 29, H-FQLPLDKGN-NH2] (H-FQLPLDKGN-NH2)	guinea pig brain membranes	nM	10
CC(C)C[C@H](NC(=O)CNC(=O)[C@H](CC(C)C)NC(=O)[C@H](CC(N)=O)NC(=O)[C@H](CCCNC(=N)N)NC(=O)[C@H](CC(C)C)NC(=O)[C@@H](NC(=O)[C@H](CO)NC(=O)[C@@H](NC(=O)[C@H](CO)NC(=O)[C@@H](N)Cc1ccccc1)C(C)C)[C@@H](C)O)C(N)=O [Example 46, H-FSVSTLRNLGL-NH2] (H-FSVSTLRNLGL-NH2)	guinea pig brain membranes	nM	100
CSCC[C@H](NC(=O)[C@@H](N)Cc1ccc(O)cc1)C(=O)N[C@@H](Cc1c[nH]cn1)C(=O)NCC(=O)N[C@@H](Cc1c[nH]cn1)C(=O)N[C@@H](CCCNC(=N)N)C(=O)N[C@@H](C)C(=O)N1CCC[C@H]1C(=O)NCC(N)=O [Example 66, H-YMHGHRAPG-NH2] (H-YMHGHRAPG-NH2)	guinea pig brain membranes	nM	2
CC(C)C[C@H](NC(=O)[C@H](C)N)C(=O)N[C@@H](CCC(=O)O)C(=O)N[C@@H](Cc1c[nH]c2ccccc12)C(=O)N[C@@H](CC(C)C)C(=O)NCC(=O)N[C@@H](C)C(=O)N[C@@H](CC(=O)O)C(=O)N[C@@H](CCCNC(=N)N)C(=O)N[C@@H](CC(N)=O)C(=O)N[C@@H](CCC(=O)O)C(N)=O [Example 37, H-ALEWLGADRNE-NH2] (H-ALEWLGADRNE-NH2)	guinea pig brain membranes	nM	800

Data request: What does the data say about its IC50? Entry: CC(C)C[C@H](NC(=O)[C@H](CO)NC(=O)[C@@H]1CCCN1C(=O)[C@@H](N)CC(=O)O)C(=O)N1CCC[C@H]1C(=O)N[C@H](C(=O)N[C@@H](C)C(=O)N[C@@H](CO)C(=O)N[C@@H](CO)C(=O)N[C@@H](CO)C(=O)N[C@@H](CO)C(=O)N[C@@H](CO)C(=O)N[C@@H](CO)C(=O)N[C@@H](CO)C(=O)N[C@@H](CCCCN)C(=O)N[C@@H](CCCNC(=N)N)C(N)=O)C(C)C [Example 11, H-DPSLPVASSSSSSSKR-NH2] (H-DPSLPVASSSSSSSKR-NH2)
Data returned: 270

Data request: Try the molecule CC[C@H](C)[C@H](NC(=O)[C@@H]1CCCN1C(=O)[C@H](CCC(=O)O)NC(=O)[C@H](CC(=O)O)NC(=O)[C@@H](NC(=O)CNC(=O)[C@H](CCC(=O)O)NC(=O)[C@H](Cc1ccccc1)NC(=O)[C@H](CC(=O)O)NC(=O)[C@@H](NC(=O)[C@@H](N)CC(=O)O)C(C)C)[C@@H](C)O)C(=O)N[C@@H](Cc1ccccc1)C(N)=O [Example 38, H-DVDFEGTDEPIF-NH2] (H-DVDFEGTDEPIF-NH2)
Data returned: 500

Data request: Quick one: CC(C)C[C@H](NC(=O)[C@H](CO)NC(=O)[C@@H](NC(=O)[C@H](CC(=O)O)NC(=O)[C@@H](N)CO)[C@@H](C)O)C(=O)N[C@H](C(=O)N[C@@H](Cc1c[nH]c2ccccc12)C(=O)N[C@@H](CC(N)=O)C(=O)N[C@@H](CO)C(=O)N[C@H](C(=O)N[C@@H](CCCCN)C(N)=O)C(C)C)[C@@H](C)O [Example 27, H-SDTSLTWNSVK-NH2] (H-SDTSLTWNSVK-NH2)
Data returned: 680

Data request: Now the same for CC[C@H](C)[C@H](NC(=O)[C@H](C)NC(=O)[C@@H](NC(=O)[C@H](CCC(=O)O)NC(=O)[C@H](CCC(=O)O)NC(=O)[C@@H]1CCCN1C(=O)[C@H](Cc1ccccc1)NC(=O)[C@@H](N)CC(=O)O)C(C)C)C(=O)N[C@H](C(=O)N[C@@H](CCC(=O)O)C(=O)N[C@@H](CCC(=O)O)C(=O)N[C@@H](CC(C)C)C(N)=O)C(C)C [Example 9, H-DFPEEVAIVEEL-NH2] (H-DFPEEVAIVEEL-NH2)
Data returned: 220

Data request: Request: CSCC[C@H](NC(=O)CNC(=O)[C@H](Cc1ccccc1)NC(=O)[C@H](CC(=O)O)NC(=O)[C@H](CCCNC(=N)N)NC(=O)[C@H](CCSC)NC(=O)[C@@H](NC(=O)[C@@H](NC(=O)[C@@H](NC(=O)[C@H](CO)NC(=O)[C@@H](N)Cc1ccccc1)C(C)C)[C@@H](C)O)[C@@H](C)O)C(N)=O [Example 16, H-FSVTTMRDFGM-NH2] (H-FSVTTMRDFGM-NH2)
Data returned: 80

Data request: Then what about the molecule CC[C@H](C)[C@H](NC(=O)[C@H](C)NC(=O)[C@H](C)NC(=O)[C@@H](NC(=O)[C@H](CO)NC(=O)[C@H](C)NC(=O)[C@H](Cc1ccccc1)NC(=O)[C@H](Cc1ccc(O)cc1)NC(=O)[C@H](CCC(N)=O)NC(=O)[C@@H](NC(=O)[C@@H](N)C(C)C)[C@@H](C)CC)[C@@H](C)CC)C(=O)NCC(=O)N[C@@H](CC(=O)O)C(=O)N[C@@H](CCCNC(=N)N)C(N)=O [Example 52, H-VIQYFASIAAIGDR-NH2] (H-VIQYFASIAAIGDR-NH2) ?
Data returned: 7000

Data request: Also, CC[C@H](C)[C@H](NC(=O)[C@H](CCC(=O)O)NC(=O)[C@H](C)NC(=O)[C@@H](N)C(C)C)C(=O)N[C@@H](CCC(N)=O)C(=O)NCC(=O)N[C@@H](Cc1c[nH]cn1)C(=O)N[C@@H](C)C(=O)NCC(N)=O [Example 32, H-VAEIQGHAG-NH2] (H-VAEIQGHAG-NH2) please.
Data returned: 200
